# Subject Of Test: morphine dehydrogenase (MDH) (Pseudomonas putida, UniProt Q02198)
# Sequence (Q02198 whole entry): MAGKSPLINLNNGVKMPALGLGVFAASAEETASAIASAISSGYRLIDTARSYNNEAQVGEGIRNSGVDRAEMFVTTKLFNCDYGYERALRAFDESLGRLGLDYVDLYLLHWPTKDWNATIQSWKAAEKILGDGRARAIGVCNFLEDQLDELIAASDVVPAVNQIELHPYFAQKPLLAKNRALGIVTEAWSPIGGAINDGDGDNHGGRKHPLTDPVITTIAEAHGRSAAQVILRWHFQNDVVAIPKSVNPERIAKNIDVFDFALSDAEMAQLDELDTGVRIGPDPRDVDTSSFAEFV
# Procedure Summary: biochemical
# Assay type: biochemical, Pseudomonas putida MlO
# Test Parameters: 10 min, read-out: (a) Relative activity
Result Type: activity at 1000 µM (%)

• O=C(O)CI [Iodoacetate] = 58
• OCCS = 100
• CCN1C(=O)C=CC1=O [N-Ethylmaleimide] = 58
• O[C@H](CS)[C@H](O)CS (racemic) = 97
